# credit: paper PMC8219897

Molecular target: human estrogen receptor alpha (ERα) (Homo sapiens)
Sequence (P03372 whole entry): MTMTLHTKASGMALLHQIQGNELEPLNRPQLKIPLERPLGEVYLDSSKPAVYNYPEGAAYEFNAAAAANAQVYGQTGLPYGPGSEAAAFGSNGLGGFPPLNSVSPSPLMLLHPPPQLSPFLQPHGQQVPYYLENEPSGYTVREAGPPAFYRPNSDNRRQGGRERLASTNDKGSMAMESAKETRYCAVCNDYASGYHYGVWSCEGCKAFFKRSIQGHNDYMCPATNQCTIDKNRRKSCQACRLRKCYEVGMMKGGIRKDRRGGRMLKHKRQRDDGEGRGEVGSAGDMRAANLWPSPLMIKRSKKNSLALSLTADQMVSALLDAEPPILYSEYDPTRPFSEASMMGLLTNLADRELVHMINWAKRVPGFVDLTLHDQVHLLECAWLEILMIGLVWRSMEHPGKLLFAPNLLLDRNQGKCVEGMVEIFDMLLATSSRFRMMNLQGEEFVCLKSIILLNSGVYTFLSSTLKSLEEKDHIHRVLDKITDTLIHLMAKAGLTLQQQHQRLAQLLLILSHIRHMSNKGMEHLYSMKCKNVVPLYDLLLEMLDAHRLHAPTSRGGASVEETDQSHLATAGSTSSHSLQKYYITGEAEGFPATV
Test: Yeast estrogen screen
Type: cell-based
Kindly supply the reported EC50 values for the records listed here.

Exercise: Please give the measured EC50 for this compound: COc1ccc(C(C)(C)c2ccc(O)cc2)cc1
Key: 666 nM

Exercise: Requested read-out: EC50. Entry: CC(C)(c1ccccc1)c1ccc(O)cc1
Key: 212 nM
